Would you mind telling me the reported TGI of each entry?
Tested on: HOP-18 NSCLC
Assay: NCI tumour cell line growth inhibition, 48 h

Quick check: TGI of COC(=O)NC(=O)c1cn(C2CCCCC2)c(=O)[nH]c1=O ?
> 100 µM

Quick check: TGI of O=C(NC(Cc1ccc(I)cc1)C(=O)O)c1ccc(Cl)cc1 (stereo not drawn) ?
> 100 µM

Quick check: TGI of NCC1(N2CCOCC2)C2CCCC21CNc1ccccc1 (stereo not drawn) ?
> 100 µM

Quick check: TGI of CC1C(=O)C(C)C(c2ccco2)N(N=O)C1c1ccco1 (stereo not drawn) ?
> 100 µM

Quick check: TGI of C[N+]1(C)C[C@@H](O)C[C@@H]1C(=O)[O-] ?
> 100 µM

Quick check: TGI of Cn1cnc([N+](=O)[O-])c1Sc1nc2ccc([N+](=O)[O-])cc2[nH]1 ?
> 100 µM

Quick check: TGI of CCOC(=O)C1=C(c2ccccc2)N(C(C)=O)Cc2ccccc21 ?
99.4 µM

Quick check: TGI of COc1cc([N+](=O)[O-])ccc1NC(=O)c1cccc([N+](=O)[O-])c1O ?
61 µM

Quick check: TGI of COc1ccc(/C=C2\CCC(Cc3ccccc3)(CN(C)C)C2=O)cc1 (stereo not drawn) ?
> 100 µM

Quick check: TGI of COc1c(C)c(O)c2c(c1C)OC(c1ccccc1)CC2=O (stereo not drawn) ?
> 100 µM

Quick check: TGI of COC(=O)C1=C(\O)C[C@@]2(C)CC[C@@H](C(=O)OC)C2C/C=C\1C(=O)OC (stereo partly drawn) ?
> 100 µM

Quick check: TGI of O=C1CC[C@@H](NC(=O)Cc2ccccc2)C(=O)N1 ?
> 100 µM

Quick check: TGI of CCOC(=O)CC(NCc1ccc(N=Cc2nc3ccc(C(F)(F)F)cc3nc2-c2ccccc2)cc1)C(=O)OCC (stereo not drawn) ?
> 100 µM

----------
Test system: SNB-19 CNS
Experiment: NCI tumour cell line growth inhibition, 48 h
outcome.measure: TGI

Quick check: TGI of NCCNCCNc1ccc(NCCNCCN)c2c1C(=O)c1c(O)ccc(O)c1C2=O ?
> 100 µM

Quick check: TGI of CC(C)(C)OC(=O)NC(CS(=O)(=O)O)C(=O)O (configuration not stated) ?
> 100 µM

Quick check: TGI of Cc1[nH]n(-c2cccc(Cl)c2)c(=O)c1/C=C1\C=c2ccccc2=CC1=O ?
> 100 µM

Quick check: TGI of Cn1cnc2c1c(=O)n(CCNCCO)c(=O)n2C ?
> 100 µM

Quick check: TGI of CCCCCCCCCCCC(=O)OC(COC(N)=O)COc1ccc(Cl)cc1 (configuration not stated) ?
83 µM

Quick check: TGI of COC(=O)[C@]12CC[C@@H](C)[C@H](C)[C@@H]1C1=CC[C@@H]3[C@@]4(C)CC(=O)[C@H](O)[C@@](C)(CO)[C@@H]4C(=O)C[C@@]3(C)[C@]1(C)CC2 ?
27.8 µM

Quick check: TGI of N=c1oc2ccc(Cl)cc2cc1C(N)=O ?
> 100 µM

Quick check: TGI of CC(C)NC(=O)OCc1c(COC(=O)NC(C)C)c(-c2cc[n+](COC(=O)C(C)C)cc2)n2c1CCC2 ?
> 100 µM

Quick check: TGI of N#CC1C(=O)NC(=O)C1=O (configuration not stated) ?
> 100 µM

Quick check: TGI of COc1cc(Cn2c(SCC(=O)Nc3ccc(Cl)cc3)nc3ccccc3c2=O)cc(OC)c1OC ?
26 µM

Quick check: TGI of Nc1nc(OCC2CCCCC2)c2[nH]cnc2n1 ?
> 100 µM

Quick check: TGI of Cn1cnc([N+](=O)[O-])c1Sc1nc2ccc([N+](=O)[O-])cc2[nH]1 ?
> 100 µM

Quick check: TGI of COC1=CC(=O)C2C(C1=O)C(c1ccc(Cl)cc1)[C@@H]2C (some centres not stated) ?
80.3 µM

Quick check: TGI of COC(=O)/C=C1\CCCN1CCc1cc2c(cc1CC#N)OCO2 ?
> 100 µM

Quick check: TGI of N=C1C(c2nc3ccccc3s2)=C(O)CN1c1cc(Cl)cc(Cl)c1 ?
> 100 µM

Quick check: TGI of C[n+]1c2ccccc2c(CNC(CS)C(=O)O)c2ccccc21 (configuration not stated) ?
> 100 µM

Quick check: TGI of C[N+](C)(C)CCN[N+]1(C)CCCc2ccccc21 (configuration not stated) ?
> 100 µM

Quick check: TGI of COc1ccc(-c2nc3sccn3c2-c2ccnc(NCCCNS(=O)(=O)c3ccc(F)cc3)n2)cc1 ?
> 100 µM

Quick check: TGI of Nc1c(Br)cc(-c2nc3ccccc3s2)cc1Br ?
> 100 µM

Quick check: TGI of NCC1(N2CCOCC2)C2CCCC21CNc1ccccc1 (configuration not stated) ?
> 100 µM

Quick check: TGI of CC1(C)CC(N2CCN(C3CC(C)(C)NC(C)(C)C3)CC2)CC(C)(C)N1 ?
> 100 µM

Quick check: TGI of Fc1ccc(C2C3CCOc4c(ccc5ccccc45)C3=NN2c2ccccc2)cc1 (configuration not stated) ?
> 100 µM

----------
Test system: UO-31 renal
Experiment: NCI tumour cell line growth inhibition, 48 h; in the data active = GI50 below about 0.43 µM; inactive = the rest
The reply should name one outcome from YES for active, NO for inactive

Query: recorded result category for O=C1/C(=C/c2ccccc2[N+](=O)[O-])COc2ccc(O)c(O)c21 in this test
YES

Query: recorded result category for O=C1NC(=O)C(c2c[nH]c3ccccc23)=C1c1ccccc1 in this test
NO

Query: recorded result category for COc1ccc(-c2nc3sccn3c2-c2ccnc(NCCCNS(=O)(=O)c3ccc(F)cc3)n2)cc1 in this test
NO

Query: recorded result category for Cc1cc(N)cc(C)c1-c1c(Br)cc(N)cc1Br in this test
NO

Query: recorded result category for Oc1cccc(-c2nc(-c3ccccc3)[nH]c2-c2ccncc2)c1 in this test
NO

----------
Test system: SNB-75 CNS
Assay: NCI tumour cell line growth inhibition, 48 h; in the data active means GI50 below about 0.43 µM; inactive means the rest
The reply should name one outcome from 1 (active), -1 (inactive)

Query: recorded result category for COc1cc(-c2nn(-c3cccc(NC(=O)CCN4CCN(C)CC4)c3)cc2-c2ccncc2)ccc1Cl in this test
-1

Query: recorded result category for CC1COCCN1CC#CCOC(=O)c1cc2ccccc2oc1=O (stereo not given) in this test
-1

Query: recorded result category for Fc1ccc(-c2c(-c3ccncc3)[nH]c3nccnc23)cc1 in this test
-1

Query: recorded result category for CN1CCN(c2ccc(Nc3ncc4cc5n(c4n3)C3(CCCCC3)CNC5=O)nc2)CC1 in this test
-1

Query: recorded result category for N=C1/C(=C2\Nc3ccccc3S2)CC(=O)N1c1ccc(SC(F)F)cc1 in this test
1

Query: recorded result category for FC(F)(F)c1ccc(NCc2nc3ccccc3[nH]2)cc1 in this test
-1

Query: recorded result category for CCCc1n(Cc2ccc3ccccc3n2)cc[n+]1Cc1ccc2ccccc2n1 in this test
-1

Query: recorded result category for COC1=CC2CCN3Cc4cc5c(cc4C(C1O)C23)OCC5 (stereo not given) in this test
-1

Query: recorded result category for COc1cc(NC(=O)c2ccccc2Nc2ccnc(C(F)(F)F)c2)cc(OC)c1OC in this test
-1

Query: recorded result category for CNCCN(C)Cc1cn[nH]c1-c1ccc(OC2CC(OCCC3CCOCC3)C2)cc1 (stereo not given) in this test
-1

Query: recorded result category for CC[C@@]1(O)C(=O)NCc2c1cc1n(c2=O)Cc2cc3c(NC(C)=O)cccc3nc2-1 in this test
-1

Query: recorded result category for Cc1cn2c(/C=C3/C(=O)Nc4ccc(Cl)cc43)c(C)nc2s1 in this test
-1

Query: recorded result category for Oc1cccc(-c2nc(-c3ccccc3)[nH]c2-c2ccncc2)c1 in this test
-1

Query: recorded result category for COc1cc(/C=C/c2cc(O)c(C/C=C(\C)CC/C=C(\C)CO)c(O)c2)cc2c1O[C@]1(C)CC[C@@H](O)C(C)(C)[C@H]1C2 in this test
-1

Query: recorded result category for O=C(O)c1cn(C2CC2)c2cc(N3CCN(Cc4ccc5ccccc5c4O)CC3)c(F)cc2c1=O in this test
-1

----------
System: CAKI-1 renal
Experiment: NCI tumour cell line growth inhibition, 48 h
outcome.measure: TGI

Recall the recorded TGI for CCN(CCO)CCCOc1ccc2c(Nc3cc(CC(=O)Nc4cccc(F)c4)[nH]n3)ncnc2c1 with CAKI-1 renal and state it.
> 100 µM

Recall the recorded TGI for CCCCCCC1CC(=O)C1(Cl)Cl (configuration not stated) with CAKI-1 renal and state it.
33.3 µM

Recall the recorded TGI for N#Cc1c(N)c(C#N)c2c(c1-c1ccc(Cl)cc1)COc1ccc(F)cc1-2 with CAKI-1 renal and state it.
> 50 µM

Recall the recorded TGI for Cc1c2cc[n+](C)cc2c(C)c2c1oc1ccccc12 with CAKI-1 renal and state it.
98.3 µM

Recall the recorded TGI for Cc1c(O)c(Br)c(C)c(O)c1Br (tested in a mixture with another compound) with CAKI-1 renal and state it.
3.67 µM

Recall the recorded TGI for CCOC(=O)C(NC(=O)c1ccccc1)(Nc1ccc(S(=O)(=O)Nc2cc(C)nc(C)n2)cc1)C(F)(F)F (configuration not stated) with CAKI-1 renal and state it.
> 100 µM

Recall the recorded TGI for Cc1cc2c(cc1C)C(=O)/C(=C/c1ccccc1C(=O)O)C2 with CAKI-1 renal and state it.
> 100 µM

Recall the recorded TGI for CC1(C)CC(N2CCN(C3CC(C)(C)NC(C)(C)C3)CC2)CC(C)(C)N1 with CAKI-1 renal and state it.
> 100 µM

Recall the recorded TGI for COc1c2ccccc2c(O)c2c(=O)ccn(C)c12 with CAKI-1 renal and state it.
52.9 µM

Recall the recorded TGI for C#CC(O)/C=C/C(O)CCCC(O)CC#CC(O)C#CC(O)CCCC(O)/C=C/CCCCCC(=O)CCCCCCCCCCCCCC(O)C(O)C#CC(=O)O (configuration not stated) with CAKI-1 renal and state it.
> 50 µM

Recall the recorded TGI for COc1c(Br)cc(/C=C(\C#N)c2ccccn2)cc1Br with CAKI-1 renal and state it.
> 100 µM

Recall the recorded TGI for Nc1nnc2oc3ccc4ccccc4c3cc1-2 with CAKI-1 renal and state it.
> 100 µM

Recall the recorded TGI for COC(=O)/C(=N/NC(C)(C)C)C(C(=O)OC)C(=O)C(=O)Nc1nc2ccc([N+](=O)[O-])cc2s1 (configuration not stated) with CAKI-1 renal and state it.
> 100 µM

Recall the recorded TGI for CN(C)c1ccc(/C=c2/c3ccccc3n3c2cc(NC(=O)NCCC[N+](C)(C)C)[n+]3C)cc1 with CAKI-1 renal and state it.
> 100 µM

Recall the recorded TGI for CCOC(=O)c1c2ccc(/C=C/c3ccccc3)ccc-2c(C(=O)OCC)c1N with CAKI-1 renal and state it.
> 100 µM

Recall the recorded TGI for COC(=O)C(Cc1nc2ccccc2[nH]c1=O)C(=O)C(=O)Nc1ccc(F)cc1 (configuration not stated) with CAKI-1 renal and state it.
> 100 µM

Recall the recorded TGI for C#Cc1ccc(-n2c(/C=C/c3ccc4ccccc4c3)nc3ncccc3c2=O)cc1 with CAKI-1 renal and state it.
> 100 µM
